Answer each item with its documented IC50.
Molecular target: Factor XIa (Homo sapiens, UniProt P03951)
Sequence (P03951 388-625 limits assumed): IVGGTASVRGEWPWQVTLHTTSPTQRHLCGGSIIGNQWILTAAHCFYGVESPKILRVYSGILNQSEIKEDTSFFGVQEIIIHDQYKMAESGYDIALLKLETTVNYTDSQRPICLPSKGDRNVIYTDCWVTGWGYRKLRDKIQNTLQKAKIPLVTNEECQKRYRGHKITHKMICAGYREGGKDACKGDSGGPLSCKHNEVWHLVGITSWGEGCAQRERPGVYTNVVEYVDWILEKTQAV
Sequence (P03951 19-387 partner limits assumed): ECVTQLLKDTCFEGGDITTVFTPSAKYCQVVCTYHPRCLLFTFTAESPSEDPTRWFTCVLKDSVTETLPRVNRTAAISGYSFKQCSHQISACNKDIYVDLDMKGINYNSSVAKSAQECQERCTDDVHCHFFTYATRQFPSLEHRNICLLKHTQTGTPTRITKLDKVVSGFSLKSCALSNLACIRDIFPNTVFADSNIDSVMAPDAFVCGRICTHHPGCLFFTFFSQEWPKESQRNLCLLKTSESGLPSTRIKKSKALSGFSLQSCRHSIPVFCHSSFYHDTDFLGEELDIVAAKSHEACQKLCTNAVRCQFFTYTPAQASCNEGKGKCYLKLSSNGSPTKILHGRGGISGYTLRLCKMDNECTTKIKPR
Test: Factor XIa inhibition assay (FLINT) utilizing a fluorophore-quencher pair peptide substrate 5Fam-[…]-K5Tamra
Assay type: biochemical
Conditions: kinetic (KIN) reads; values in nM; read-out: FXIa KIN Inh IC50
The answer is to be given in nM; state only the numeric part.

Challenge: Field request: IC50 | item: CC(C)(O)COc1nccc(-c2cnc(C3CC4(CC4)c4nc(-c5c(-n6cnnn6)ccc(Cl)c5F)cc(=O)n43)[nH]2)c1F (single isomer, unassigned) [Example 70]
Response given: 7.3

Challenge: Sample C[C@@H]1C[C@H](c2ncc(-c3ccc4nccn4c3)[nH]2)n2c1cc(-c1c(-n3cnnn3)ccc(Cl)c1F)cc2=O (stereo in doubt) [Example 49] — what was its IC50?
Response given: 24.2

Challenge: Item under review: CCO[C@@H]1C[C@@H](c2ncc(-c3ccc(N)nc3F)[nH]2)n2c1cc(-c1c(-n3cnnn3)ccc(Cl)c1F)cc2=O [Example 139] . Reported IC50?
Response given: 0.3

Challenge: Find the recorded IC50 belonging to C[C@H]1C[C@@H](c2ncc(-c3ncc(N)nc3F)[nH]2)n2c1nc(-c1c(-n3cnnn3)ccc(Cl)c1F)cc2=O (single isomer, unassigned) [Example 89] and report it.
Response given: 5.1

Challenge: Suppose we examine the molecule Nc1ccc(-c2cnc(C3CCCCc4cc(-c5c(-n6cnnn6)ccc(Cl)c5F)cc(=O)n43)[nH]2)c(F)n1 (stereo not drawn) [Cmpd (IV)] ; what IC50 value has been reported?
Response given: 48

Challenge: Can you look up the measured IC50 of C[C@H]1C[C@H](c2ncc(-c3ccnc(N)c3F)[nH]2)n2c1nc(-c1c(-n3cnnn3)ccc(Cl)c1F)cc2=O (relative stereo) [Example 87] for me?
Response given: 1.5
